# protocol_text: Stability of peroxygen-releasing compounds during storage at 40° C., iodometric titration of hydrogen peroxide (Example 4)
# Assay type: physicochemical
assay_metric: % Remaining H2O2 Day 6 (%)
Give your result in % as a bare value.

[Ca+2].[O-][O-] [Calcium peroxide, calcium peroxide] : 97
[Mg+2].[O-][O-] [Magnesium peroxide, magnesium peroxide] : 100
O=C([O-])[O-].O=C([O-])[O-].OO.OO.OO.[Na+].[Na+].[Na+].[Na+] [Sodium percarbonate (FB 400), sodium percarbonate] : 96

Please supply the value of reported % Remaining H2O2 Day 6 for the item O=C([O-])[O-].O=C([O-])[O-].OO.OO.OO.[Na+].[Na+].[Na+].[Na+] [Sodium percarbonate, sodium percarbonate]
99
